- Test system: Proteus vulgaris
- Experiment summary: MIC against Gram-negative bacteria: Proteus vulgaris
- Format: cell-based
- Applied conditions: Proteus vulgaris; 96-well plate, 5×10^5 CFU/mL, 37° C., 10 h
Please go through the items and note down their MIC (μg/mL) P. vulgaris.
The reply should be a number in µg/mL, with the unit left off.

**Query** So what's the measured MIC (μg/mL) P. vulgaris for this one? PRT111 (DLDECASRSKSGEEDPQPQCQHLCHNYVGGYFCSCRPGYELQEDTHSCQ; listed as Homo sapiens)
**Result** 25

**Query** So what's the measured MIC (μg/mL) P. vulgaris for this one? PRT37 (IGVDCSDGFNGGCEQLCLQQMAPFPDDPTLYNILMFCGCIEDYKLGVDGRSCQ; listed as Homo sapiens)
**Result** 25

**Query** So what's the measured MIC (μg/mL) P. vulgaris for this one? PRT59 (PCTVGDASACLTCAPDNRTRCGTCNTGYMLSQGLCK; listed as Homo sapiens)
**Result** 12.5

**Query** So what's the measured MIC (μg/mL) P. vulgaris for this one? PRT103 (CSSYGKLCRNGGKCRERPIGFFCDCTFSAYTGPFC; listed as Homo sapiens)
**Result** 12.5

**Query** So what's the measured MIC (μg/mL) P. vulgaris for this one? PRT20 (QKNLCNNTGDPEMCPENGSCVPDGPGLLQCVCADGFHGYKCM; listed as Homo sapiens)
**Result** 25

**Query** So what's the measured MIC (μg/mL) P. vulgaris for this one? PRT134 (IKDRCLPNYCEHGGSCSQSWTTFYCNCSDTSYTGATCH; listed as Homo sapiens)
**Result** 25

**Query** So what's the measured MIC (μg/mL) P. vulgaris for this one? PRT98 (DINECATPSKVSCGKFSDCWNTEGSYDCVCSPGYEPVSGAKTFKNESENTCQ; listed as Homo sapiens)
**Result** 12.5

**Query** So what's the measured MIC (μg/mL) P. vulgaris for this one? PRT7 (TCLSSKEGTICSGNGVCSNELKCVCNRHWIGSDCN; listed as Homo sapiens)
**Result** 50

**Query** So what's the measured MIC (μg/mL) P. vulgaris for this one? PRT129 (CSTYGHLCRNGGRCREKRRGVTCDCAFSAYDGPFC; listed as Homo sapiens)
**Result** 12.5

**Query** So what's the measured MIC (μg/mL) P. vulgaris for this one? PRT64 (PCSSSPCRGGATCALGPHGKNYTCRCPQGYQLDSSQLDCV; listed as Homo sapiens)
**Result** 25

**Query** So what's the measured MIC (μg/mL) P. vulgaris for this one? PRT27 (NACASGPCPPHADCRDLWQTFSCTCQPGYYGPGCV; listed as Homo sapiens)
**Result** 50

**Query** So what's the measured MIC (μg/mL) P. vulgaris for this one? PRT85 (KLHFCDSGPCKNSGFCSERWGSFSCDCPVGFGGKDCQ; listed as Homo sapiens)
**Result** 12.5

**Query** So what's the measured MIC (μg/mL) P. vulgaris for this one? PRT117 (DVDECALGRSPCAQGCTNTDGSFHCSCEEGYVLAGEDGTQCQ; listed as Homo sapiens)
**Result** 12.5

**Query** So what's the measured MIC (μg/mL) P. vulgaris for this one? PRT126 (IIDRCVPNHCEHGGKCSQTWDSFKCTCDETGYSGATCH; listed as Homo sapiens)
**Result** 12.5

**Query** So what's the measured MIC (μg/mL) P. vulgaris for this one? PRT23 (KKNPCNAEFQNFCIHGECKYIEHLEAVTCKCQQEYFGERCG; listed as Homo sapiens)
**Result** 25

**Query** So what's the measured MIC (μg/mL) P. vulgaris for this one? PRT6 (TRKLCSLDNGDCDQFCHEEQNSVVCSCARGYTLADNGKACI; listed as Homo sapiens)
**Result** 25

----------
- System: Klebsiella pneumonia
- Experiment summary: MIC against Gram-negative bacteria: Klebsiella pneumonia
- Assay type: cell-based
- Applied conditions: K. pneumonia; 10 h cultivation at 37° C.
Please go through the items and note down their MIC.
The reply should be a number in µg/mL, with the unit left off.

**Query** So what's the measured MIC for this one? PRT944 (TSHPCFVSRPCLNGGTCHMLSRDTYECTCQVGFTGKECQ; listed as Homo sapiens)
**Result** 100

**Query** So what's the measured MIC for this one? PRT1009 (DVDECLDQPCHPTGTAACHSLANAFYCQCLPGHTGQWCE; listed as Homo sapiens)
**Result** 12.5

**Query** So what's the measured MIC for this one? PRT932 (QVNECLSNPCIHGNCTGGLSGYKCLCDAGWVGINCE; listed as Homo sapiens)
**Result** 12.5

**Query** So what's the measured MIC for this one? PRT921 (NIDDCASAACFHGATCHDRVASFYCECPHGRTGLLCH; listed as Homo sapiens)
**Result** 12.5

**Query** So what's the measured MIC for this one? PRT1039 (SSGICDEASCIHGGTCTAIKADSYICLCPLGFKGRHCE; listed as Homo sapiens)
**Result** 12.5

**Query** So what's the measured MIC for this one? PRT1038 (FDMPCDETLCSADSFCVNDYTWGGSRCQCTLGKGGESCS; listed as Homo sapiens)
**Result** 50

**Query** So what's the measured MIC for this one? PRT990 (LDDACVSNPCHEDAICDTNPVNGRAICTCPPGFTGGACD; listed as Homo sapiens)
**Result** 12.5

**Query** So what's the measured MIC for this one? PRT920 (DVDECQLMPNACQNGGTCHNTHGGYNCVCVNGWTGEDCS; listed as Homo sapiens)
**Result** 50

**Query** So what's the measured MIC for this one? PRT909 (LVDECSPSPCQNGATCTDYLGGYSCKCVAGYHGVNCS; listed as Homo sapiens)
**Result** 50

**Query** So what's the measured MIC for this one? PRT922 (LQCRDGYEPCVNEGMCVTYHNGTGYCKCPEGFLGEYCQ; listed as Homo sapiens)
**Result** 12.5

**Query** So what's the measured MIC for this one? PRT947 (NIDDCARGPHCLNGGQCMDRIGGYSCRCLPGFAGERCE; listed as Homo sapiens)
**Result** 50

**Query** So what's the measured MIC for this one? PRT1021 (LQNPCYIGTHGCDTNAACRPGPRTQFTCECSIGFRGDGRTCY; listed as Homo sapiens)
**Result** 50

**Query** So what's the measured MIC for this one? PRT982 (VLSPCESQPCQHGGQCRPSPGPGGGLTFTCHCAQPFWGPRCE; listed as Homo sapiens)
**Result** 50

**Query** So what's the measured MIC for this one? PRT1028 (DENECATGFHRCGPNSVCINLPGSYRCECRSGYEFADDRHTCI; listed as Homo sapiens)
**Result** 50

**Query** So what's the measured MIC for this one? PRT927 (DIDDCSSTPCLNGAKCIDHPNGYECQCATGFTGVLCE; listed as Homo sapiens)
**Result** 12.5

**Query** So what's the measured MIC for this one? PRT964 (NIDDCASNPCTFGVCRDGINRYDCVCQPGFTGPLCN; listed as Homo sapiens)
**Result** 25

**Query** So what's the measured MIC for this one? PRT989 (NIDDCATAVCFHGATCHDRVASFYCACPMGKTGLLCH; listed as Homo sapiens)
**Result** 12.5

**Query** So what's the measured MIC for this one? PRT1037 (DCSRPCPPGRQKSPRDPCQCVCHGSAVTTQDCC; listed as Homo sapiens)
**Result** 12.5

**Query** So what's the measured MIC for this one? PRT1033 (LYVPCAPSPCVNGGTCRQTGDFTFECNCLPETVRRGTE; listed as Homo sapiens)
**Result** 25

**Query** So what's the measured MIC for this one? PRT1008 (ELDACQSQPCHNHGTCTPKPGGFHCACPPGFVGLRCE; listed as Homo sapiens)
**Result** 12.5

**Query** So what's the measured MIC for this one? PRT935 (NIDECASNPCLNQGTCFDDISGYTCHCVLPYTGKNCQ; listed as Homo sapiens)
**Result** 12.5

**Query** So what's the measured MIC for this one? PRT1040 (AAHPCVRAPCAHGGSCRPRKEGYDCDCPLGFEGLHCQ; listed as Homo sapiens)
**Result** 25

**Query** So what's the measured MIC for this one? PRT1043 (HGPNCSQECRCHNGGLCDRFTGQCRCAPGYTGDRCR; listed as Homo sapiens)
**Result** 50

**Query** So what's the measured MIC for this one? PRT895 (NIDECAGNPCHNGGTCEDGINGFTCRCPEGYHDPTCL; listed as Homo sapiens)
**Result** 50

**Query** So what's the measured MIC for this one? PRT1016 (RAGPCPPRGCSNGGTCQLMPEKDSTFHLCLCPPGFIGPDCE; listed as Homo sapiens)
**Result** 25

**Query** So what's the measured MIC for this one? PRT1014 (LRDFCSANPCVNGGVCLATYPQIQCHCPPGFEGHACE; listed as Homo sapiens)
**Result** 25

**Query** So what's the measured MIC for this one? PRT995 (ETNECASAPCLNHADCHDLLNGFQCICLPGFSGTRCE; listed as Homo sapiens)
**Result** 50

**Query** So what's the measured MIC for this one? PRT999 (PEDNCTCHHGHCQRSSCVCDVGWTGPECE; listed as Homo sapiens)
**Result** 12.5

**Query** So what's the measured MIC for this one? PRT913 (VINGCKGKPCKNGGTCAVASNTARGFICKCPAGFEGATCE; listed as Homo sapiens)
**Result** 25

**Query** So what's the measured MIC for this one? PRT1026 (NKETCEHNHRQCSRHAFCTDYATGFCCHCQSKFYGNGKHCL; listed as Homo sapiens)
**Result** 25

**Query** So what's the measured MIC for this one? PRT903 (DINECASDPCRNGANCTDCVDSYTCTCPAGFSGIHCE; listed as Homo sapiens)
**Result** 25

**Query** So what's the measured MIC for this one? PRT958 (DVDECSIGANPCEHLGRCVNTQGSFLCQCGRGYTGPRCE; listed as Homo sapiens)
**Result** 50
